Assay: Pharmacokinetic studies in mice (IV and PO)
Format: in vivo
Settings: mouse, plasma, PO 10 mg/kg
Method: Administration: Mice in the IV group was dosed at 2 mg/kg (20% PEG 400+10% Cremophor EL+70% PBS 7.4) via tail vein injection (N=9). Mice in the PO group was dosed at 10 mg/kg (20% PEG 400+10% Cremophor EL+70% PBS 7.4) via oral gavage (N=9). All the mice were fasted overnight before dosing and had free access to food 4 hr post dosing. […]
For each of the compounds below, state its AUC(0-inf).

INSERT INTO assay_data (compound, measured_result) VALUES
  ('CO[C@H]1/C=C/C[C@H](C)[C@@H](C)S(=O)(=O)NC(=O)c2ccc3c(c2)N(C[C@@H]2CC[C@H]21)C[C@@]1(CCCc2cc(Cl)ccc21)CO3 [AMG-176, reference compound]', '36500 ng·h/mL'),
  ('CO[C@H]1C2=CC(C2)[C@H](C)[C@@H](C)S(=O)(=O)NC(=O)c2ccc3c(c2)N(C[C@@H]2CC[C@H]21)C[C@@]1(CCCc2cc(Cl)c(F)cc21)CO3 (single isomer, unassigned) [Cpd. No. 21 (isomer 1)]', '41300 ng·h/mL');

Now look at this one.
Enquiry: Look at this compound and give its reported AUC(0-inf). CO[C@H]1C2=CC(C2)[C@H](C)[C@@H](C)S(=O)(=O)NC(=O)c2ccc3c(c2)N(C[C@@H]2CC[C@H]21)C[C@@]1(CCCc2cc(Cl)cc(F)c21)CO3 (single isomer, unassigned) [20 (isomer 1)]
Return: 22600 ng·h/mL

---

target: Mcl-1 protein (residues 171-323) (Homo sapiens, UniProt Q07820)
Sequence (Q07820 171-323): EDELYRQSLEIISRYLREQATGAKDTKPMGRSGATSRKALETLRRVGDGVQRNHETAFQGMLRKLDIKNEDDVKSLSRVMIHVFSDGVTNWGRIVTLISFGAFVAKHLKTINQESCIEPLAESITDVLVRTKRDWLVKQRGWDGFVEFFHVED
For each of the compounds below, state its IC50.
Answers are plain numbers, in nM.

INSERT INTO measurements (compound, endpoint, measured_result) VALUES
  ('CO[C@@H]1C2=CC(C2)C(C)(C)CS(=O)(=O)NC(=O)c2ccc3c(c2)N(C[C@@H]2CC[C@H]21)C[C@@]1(CCCc2cc(Cl)ccc21)CO3 (single isomer, unassigned) [Cpd. No. 6 (Isomer 2)]', 'IC50', 6.3);

I need IC50 for every entry listed below, if you could help.
1. CO[C@H]1C2=C[C@@H](C2)[C@H](C)CS(=O)(=O)NC(=O)c2ccc3c(c2)N(C[C@@H]2CC[C@H]21)C[C@@]1(CCCc2c1ccc(Cl)c2F)CS3 (single isomer, unassigned) [24 (isomer 1)]
2. C[C@@H]1[C@@H](C)S(=O)(=O)NC(=O)c2ccc3c(c2)N(C[C@@H]2CC[C@H]2[C@@H](OCC(=O)N2CCCC2)C2=C[C@H]1C2)C[C@@]1(CCCc2c1ccc(Cl)c2F)CO3 [compound 68]
3. C[C@@H]1[C@@H](C)S(=O)(=O)NC(=O)c2ccc3c(c2)N(C[C@@H]2CC[C@H]2[C@@H](OCC(=O)O)C2=C[C@H]1C2)C[C@@]1(CCCc2c1ccc(Cl)c2F)CO3 [compound 74]
4. CC(=O)N1CCN(CCO[C@H]2C3=C[C@@H](C3)[C@H](C)[C@@H](C)S(=O)(=O)NC(=O)c3ccc4c(c3)N(C[C@@H]3CC[C@H]32)C[C@@]2(CCCc3c2ccc(Cl)c3F)CO4)CC1 [compound 87]

Return:
[6.4, 15, 20, 8.5]

I need IC50 for every entry listed below, if you could help.
1. CO[C@H]1C2=CC(C)(C2)[C@H](C)CS(=O)(=O)NC(=O)c2ccc3c(c2)N(C[C@@H]2CC[C@H]21)C[C@@]1(CCCc2cc(Cl)ccc21)CO3 (single isomer, unassigned) [Cpd. No. 18 (Isomer 1)]
2. CO[C@H]1C2=CC(C2)[C@H](C)N(C)S(=O)(=O)NC(=O)c2ccc3c(c2)N(C[C@@H]2CC[C@H]21)C[C@@]1(CCCc2cc(Cl)ccc21)CO3 (single isomer, unassigned) [26 (isomer 1)]
3. CC[C@@H]1CS(=O)(=O)NC(=O)c2ccc3c(c2)N(C[C@@H]2CC[C@H]2[C@@H](OC)C2=CC1C2)C[C@@]1(CCCc2cc(Cl)ccc21)CO3 (single isomer, unassigned) [Cpd. No. 9 (Isomer 2)]

Return:
1: 4.2; 2: 14; 3: 3.9

---

assay: Pharmacokinetic studies in mice (IV and PO); type: in vivo; conditions: mouse, plasma, IV 2 mg/kg
ENDPOINT: AUC(0-t) (ng·h/mL)
One number for each entry, in ng·h/mL.

INSERT INTO results (molecule, measured_result) VALUES
  ('CO[C@H]1C2=C[C@@H](C2)[C@H](C)[C@@H](C)S(=O)(=O)NC(=O)c2ccc3c(c2)N(C[C@@H]2CC[C@H]21)C[C@@]1(CCCc2c1ccc(Cl)c2F)CO3 (single isomer, unassigned) [Cpd. No. 17 (isomer 1)]', 13900);

Now look at this one.
Enquiry: Look at this molecule and give its reported AUC(0-t). CO[C@H]1C2=CC(C)(C2)[C@H](C)CS(=O)(=O)NC(=O)c2ccc3c(c2)N(C[C@@H]2CC[C@H]21)C[C@@]1(CCCc2cc(Cl)ccc21)CO3 (mixture of isomers) [13 (mixture)]
Return: 4780

---

test system: NCI-H929 cells; experiment: Cell viability assay (NCI-H929 cells), CCK-8; assay type: cell-based; details: Homo sapiens, NCI-H929, 24 h, 5% FBS
pIC50: −log10 of the molar value.
Record class 1 whenever pIC50 is at 7 or higher; record class 0 when lower.

Enquiry: Has C[C@@H]1[C@@H](C)S(=O)(=O)NC(=O)c2ccc3c(c2)N(C[C@@H]2CC[C@H]2[C@@H](OCCN2CCNCC2)C2=C[C@H]1C2)C[C@@]1(CCCc2c1ccc(Cl)c2F)CO3 a recorded pIC50 greater than or equal to 7?
Return: class 0

---

For each of the molecules below, state its Cmax.
experiment: Pharmacokinetic studies in mice (IV and PO); assay type: in vivo; settings: mouse, plasma, PO 10 mg/kg, read-out: C0/Cmax (Cmax)
Answers are plain numbers, in ng/mL.

INSERT INTO results (molecule, endpoint, measurement_unit, measured_result) VALUES
  ('CO[C@H]1C2=C[C@@H](C2)[C@H](C)[C@@H](C)S(=O)(=O)NC(=O)c2ccc3c(c2)N(C[C@@H]2CC[C@H]21)C[C@@]1(CCCc2c1ccc(Cl)c2F)CO3 (single isomer, unassigned) [Cpd. No. 17 (isomer 1)]', 'Cmax', 'ng/mL', 4350);

I need Cmax for every entry listed below, if you could help.
1. COCCO[C@H]1C2=CC(C2)[C@H](C)[C@@H](C)S(=O)(=O)NC(=O)c2ccc3c(c2)N(C[C@@H]2CC[C@H]21)C[C@@]1(CCCc2cc(Cl)ccc21)CO3 (mixture of isomers) [16 (mixture)]
2. CO[C@H]1C2=CC(C2)[C@H](C)CS(=O)(=O)NC(=O)c2ccc3c(c2)N(C[C@@H]2CC[C@H]21)C[C@@]1(CCCc2cc(Cl)ccc21)CO3 (single isomer, unassigned) [Cpd. No. 14 (Isomer 1)]
3. CO[C@H]1C2=CC(C)(C2)[C@H](C)CS(=O)(=O)NC(=O)c2ccc3c(c2)N(C[C@@H]2CC[C@H]21)C[C@@]1(CCCc2cc(Cl)ccc21)CO3 (mixture of isomers) [13 (mixture)]

Return:
1: 1690; 2: 3920; 3: 1270

---

experiment: Pharmacokinetic studies in mice (IV and PO); format: in vivo; conditions: mouse, plasma, IV 2 mg/kg, read-out: Vss
ENDPOINT: Vd (L/kg)
One number for each entry, in L/kg.

I need Vd for every entry listed below, if you could help.
1. CO[C@H]1/C=C/C[C@H](C)[C@@H](C)S(=O)(=O)NC(=O)c2ccc3c(c2)N(C[C@@H]2CC[C@H]21)C[C@@]1(CCCc2cc(Cl)ccc21)CO3 [AMG-176, reference compound]
2. CO[C@H]1C2=CC(C2)[C@H](C)[C@@H](C)S(=O)(=O)NC(=O)c2ccc3c(c2)N(C[C@@H]2CC[C@H]21)C[C@@]1(CCCc2cc(Cl)cc(F)c21)CO3 (single isomer, unassigned) [20 (isomer 1)]
3. CO[C@H]1C2=CC(C)(C2)[C@H](C)CS(=O)(=O)NC(=O)c2ccc3c(c2)N(C[C@@H]2CC[C@H]21)C[C@@]1(CCCc2cc(Cl)ccc21)CO3 (mixture of isomers) [13 (mixture)]
4. CO[C@H]1C2=C[C@@H](C2)[C@H](C)[C@@H](C)S(=O)(=O)NC(=O)c2ccc3c(c2)N(C[C@@H]2CC[C@H]21)C[C@@]1(CCCc2c1ccc(Cl)c2F)CO3 (single isomer, unassigned) [Cpd. No. 17 (isomer 1)]
5. COCCO[C@H]1C2=CC(C2)[C@H](C)[C@@H](C)S(=O)(=O)NC(=O)c2ccc3c(c2)N(C[C@@H]2CC[C@H]21)C[C@@]1(CCCc2cc(Cl)ccc21)CO3 (mixture of isomers) [16 (mixture)]
6. CO[C@H]1C2=CC(C2)[C@H](C)[C@@H](C)S(=O)(=O)NC(=O)c2ccc3c(c2)N(C[C@@H]2CC[C@H]21)C[C@@]1(CCCc2cc(Cl)c(F)cc21)CO3 (single isomer, unassigned) [Cpd. No. 21 (isomer 1)]
7. CO[C@H]1C2=C[C@@H](C2)[C@H](C)[C@@H](C)S(=O)(=O)NC(=O)c2ccc3c(c2)N(C[C@@H]2CC[C@H]21)C[C@@]1(CCCc2cc(Cl)ccc21)CO3 (single isomer, unassigned) [Cpd. No. 15 (isomer 1)]
8. CO[C@H]1C2=CC(C2)[C@H](C)CS(=O)(=O)NC(=O)c2ccc3c(c2)N(C[C@@H]2CC[C@H]21)C[C@@]1(CCCc2cc(Cl)ccc21)CO3 (single isomer, unassigned) [Cpd. No. 14 (Isomer 1)]

Return:
2.3
0.8
3.2
1.2
1.7
0.6
1.5
1.7
